Where do the numbers come from? From patent US20080045504A1.

assay.target: recombinant human androgen receptor (hAR) (Homo sapiens, UniProt P10275)
Sequence (P10275 1-920): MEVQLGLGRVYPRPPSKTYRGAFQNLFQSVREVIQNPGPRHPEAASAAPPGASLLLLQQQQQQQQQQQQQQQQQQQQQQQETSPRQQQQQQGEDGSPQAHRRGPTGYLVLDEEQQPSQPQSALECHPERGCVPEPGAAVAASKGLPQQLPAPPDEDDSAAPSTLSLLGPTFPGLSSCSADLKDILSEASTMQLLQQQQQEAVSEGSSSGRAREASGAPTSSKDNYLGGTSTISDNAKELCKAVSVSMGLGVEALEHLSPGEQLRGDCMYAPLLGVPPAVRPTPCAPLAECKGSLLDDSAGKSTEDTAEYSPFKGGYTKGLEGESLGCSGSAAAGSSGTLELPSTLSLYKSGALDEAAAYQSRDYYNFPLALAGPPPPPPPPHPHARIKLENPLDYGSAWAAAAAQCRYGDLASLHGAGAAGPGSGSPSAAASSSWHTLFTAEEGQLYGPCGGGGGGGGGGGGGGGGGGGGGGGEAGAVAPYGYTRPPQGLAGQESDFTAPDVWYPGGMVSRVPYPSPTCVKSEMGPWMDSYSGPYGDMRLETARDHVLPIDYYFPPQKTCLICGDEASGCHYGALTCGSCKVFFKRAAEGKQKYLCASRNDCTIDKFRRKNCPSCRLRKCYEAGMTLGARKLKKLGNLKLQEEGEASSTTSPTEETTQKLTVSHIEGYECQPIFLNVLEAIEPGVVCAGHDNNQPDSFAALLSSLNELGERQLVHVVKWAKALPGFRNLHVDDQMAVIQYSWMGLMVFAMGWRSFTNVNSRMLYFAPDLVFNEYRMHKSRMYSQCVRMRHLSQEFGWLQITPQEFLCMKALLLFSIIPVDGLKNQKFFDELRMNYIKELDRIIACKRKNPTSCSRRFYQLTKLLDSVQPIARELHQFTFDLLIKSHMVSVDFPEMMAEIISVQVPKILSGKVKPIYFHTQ
assay.comment: Human androgen receptor binding analysis (3H-DHT competitive binding)
readout.label: pIC50
Formally, pIC50 is defined as -log10 of the concentration c, with c in mol/L.

CCCN(c1ccc(C#N)c(C(F)(F)F)c1)[C@H](C)CC	8.22
CC1CCCN1c1ccc(C#N)c(C(F)(F)F)c1 (centres unmarked)	8.82
CCC(C)N(CC)c1ccc(C#N)c(C(F)(F)F)c1 (centres unmarked)	8.77

Tell me the measured pIC50 of CCC1CCCCN1c1ccc(C#N)c(C#N)c1 (centres unmarked) , please.
8.27

One more molecule: CC[C@H]1CCCCN1c1ccc(C#N)c(Cl)c1
8.44
